These entries and their values trace back to patent US20220071961A1.

experiment: Effect of different intervals between administration and a meal on pharmacokinetic parameters (three-period crossover, single oral dose); type: in vivo, human; details: male, human, plasma, po, 7.5 mg, single oral 7.5 mg; Group C, meal 2 h after administration; n 14; mixed-effects ANOVA; read-out: AUC0-ē GeoLSM (geometric least squares mean)
Recorded Endpoint: AUC (ng·h/mL)
Give bare numbers, in ng·h/mL.

// query Read the entry CC1=NN(c2ccc3c(c2)CCCC3)C(=O)/C1=N\Nc1cccc(-c2ccc(C(=O)O)o2)c1O [compound represented by Formula I] and write its reported AUC.
// result 358

* * *

experiment: Effect of different intervals between administration and a meal on pharmacokinetic parameters (three-period crossover, single oral dose); assay type: in vivo, human; conditions: male, human, plasma, po, 7.5 mg, single oral 7.5 mg; Group B, meal 1 h after administration; n 14; mixed-effects ANOVA; read-out: AUC0-ē GeoLSM (geometric least squares mean)
Recorded Endpoint: AUC (ng·h/mL)
One number for each entry, in ng·h/mL.

// query Read the entry "CC1=NN(c2ccc3c(c2)CCCC3)C(=O)/C1=N\Nc1cccc(-c2ccc(C(=O)O)o2)c1O" and write its reported AUC.
// result 236
